Entries and their measured melting point follow.

Record excerpt, results attached:
{"compound": "O=C1SC(=O)C(F)=C1F", "metric": "melting point", "measured-result": "52 to 56 °C"}
{"compound": "CC(=O)c1cc(CC(=O)O)cc2c1NC(C(F)(F)F)CC2 (configuration not stated)", "metric": "melting point", "measured-result": "173 to 174 °C"}
{"compound": "COc1ccc2cc([C@H](C)C(=O)OCCC(C)(C)C)ccc2c1", "metric": "melting point", "measured-result": "92 to 94 °C"}
{"compound": "O=C(NCCCCN1CCC(c2ccc3c(c2OCCO)CCCC3)CC1)c1sc(-c2ccc(C(F)(F)F)cc2)nc1CO", "metric": "melting point", "measured-result": "157 to 159 °C"}
{"compound": "O=C(CCCCCCn1ccc2ccc(NC(=O)OC3CCCC3)cc21)NS(=O)(=O)c1ccccc1", "metric": "melting point", "measured-result": "74 to 76 °C"}

Data request: Specify measured melting point for O=C(O)c1nn(-c2c(Cl)cc(C(F)(F)F)cc2Cl)cc1OC(F)(F)C(F)Cl (racemic) .
Data returned: 149 to 159 °C

Data request: Provide melting point value for the following compound: CC(C)c1ccc([N+](=O)[O-])c(C(C)C)c1NC(=O)CN1CCN(CCCSc2nc3ccccc3o2)CC1
Data returned: 156 to 158 °C
